Catalogue of Kd readings, one per entry.
- MEASURED_TARGET: HLA-B*51:01
- ASSAY_PROTOCOL: IEDB peptide-MHC binding, purified MHC/competitive/fluorescence; filed as Kd, often an IC50 or EC50 that approximates it; bounds were set here for any values at or beyond the usual limits of such assays
- REPORTED_CONDITIONS: source organism: Yersinia pestis Nepal516
ENDPOINT_NAME: Kd

In [3]: df
Out[3]:
   chain_sequence  endpoint_name         val
0       MPAIFFSIV             Kd     1320 nM
1       MTSELAALI             Kd  ≥ 20000 nM
2       MTYLPAWQV             Kd  ≥ 20000 nM
3       RAMKALSSI             Kd      253 nM

---

Catalogue of Kd readings, one per entry.
- MEASURED_TARGET: HLA-A*29:02
- ASSAY_PROTOCOL: IEDB peptide-MHC binding, purified MHC/competitive/radioactivity; filed as Kd, often an IC50 or EC50 that approximates it; bounds were set here for any values at or beyond the usual limits of such assays
- REPORTED_CONDITIONS: source organism: Mammarenavirus whitewaterense
ENDPOINT_NAME: Kd

In [3]: df
Out[3]:
   chain_sequence        val
0       TKHPSLNII  ≥ 78.9 µM
1       HDHHFTPQI  ≥ 78.9 µM

---

- MEASURED_TARGET: HLA-B*14:02
- ASSAY_PROTOCOL: IEDB peptide-MHC binding, purified MHC/competitive/fluorescence; filed as Kd, often an IC50 or EC50 that approximates it; bounds were set here for any values at or beyond the usual limits of such assays
- REPORTED_CONDITIONS: source organism: Cryptosporidium parvum Iowa II
pKd: −log10 of the molar value.
ENDPOINT_NAME: pKd

>>> print(df.to_string())
   chain_sequence     val
0       FTWQHNYYL  ≤ 4.70

---

- MEASURED_TARGET: HLA-B*07:02
- ASSAY_PROTOCOL: IEDB peptide-MHC binding, purified MHC/direct/fluorescence; filed as Kd, often an IC50 or EC50 that approximates it; bounds were set here for any values at or beyond the usual limits of such assays
- REPORTED_CONDITIONS: source organism: Orthohantavirus andesense
ENDPOINT_NAME: Kd

   chain_sequence  measured_target      val
0       SIKFKRKLM      HLA-B*07:02  ≥ 20 µM

---

- MEASURED_TARGET: HLA-A*11:01
- ASSAY_PROTOCOL: IEDB peptide-MHC binding, purified MHC/competitive/radioactivity; filed as Kd, often an IC50 or EC50 that approximates it; bounds were set here for any values at or beyond the usual limits of such assays
- REPORTED_CONDITIONS: source organism: Triticum aestivum
ENDPOINT_NAME: Kd

In [3]: df
Out[3]:
   chain_sequence  measured_target  endpoint_name        val
0      QLLQELCCQH      HLA-A*11:01             Kd  ≥ 69.8 µM

---

- MEASURED_TARGET: HLA-A*68:02
- ASSAY_PROTOCOL: IEDB peptide-MHC binding, purified MHC/competitive/fluorescence; bounds were set here for any values at or beyond the usual limits of such assays
- REPORTED_CONDITIONS: source organism: Homo sapiens
ENDPOINT_NAME: IC50 (µM)

>>> print(df.to_string())
   chain_sequence  measured_target  unit_string   val
0     YFYYNAFHWAI      HLA-A*68:02           µM  3.62

Every entry's value here was drawn from the Immune Epitope Database (IEDB).
